The origin of these recorded values is ChEMBL document CHEMBL1201862.

Each entry below carries its reported GI50.
# Tested on: UO-31
# assay-method-text: NCI tumour cell line growth inhibition, 48 h
Activity calls are given as the source filed them. No stated cut-off is given here; in the data, active = GI50 up to about 1.1 µM and inactive = higher.

compound	GI50
c1ccc(C2C3=C(CCCC3)Nc3nc4cc5ccccc5cc4n32)cc1 (stereo not given)	> 100 µM (inactive)
C=C(Cl)COC(=O)Nc1cccc(Cl)c1	12 µM (inactive)
O=S(=O)(NNc1ccccc1)c1ccccc1	10.6 µM (inactive)
Cc1nc2ccc(Cl)cc2c(-n2ccnc2)c1CCn1ccnc1	14.5 µM (inactive)
N#CCCN(CCCN(C(=O)Nc1ccccc1)c1ccccc1)C(=O)Nc1ccccc1	58.3 µM (inactive)

Query: GET /values?readout=GI50&system=UO-31&item= `Cc1ccc2c(c1CCCC(C)(C)O)C(=O)C(O)=C(C(C)C)C2=O`
Reply: 76 µM (inactive)

Query: Give recorded GI50 with UO-31 for the following compound: `O=C(OCc1ccccc1CN1CCOCC1)c1ccc(Br)cc1`
Reply: 95.7 µM (inactive)

Query: Request: GI50, test system UO-31, entry `Oc1cccc(-c2ccc3c4c2O[C@H]2c5[nH]c6ccccc6c5C[C@@]5(O)[C@@H](C3)N(CC3CC3)CC[C@]425)c1`
Reply: 1.67 µM (inactive)

Query: Please state recorded GI50 (tested on UO-31) of `COc1ccc(CNc2nc3cc(C(F)(F)F)ccc3nc2-c2ccccc2)cc1OC`
Reply: 23.7 µM (inactive)

Query: So what GI50 did `CCOC(=O)Cc1csc2[n+]1C(=O)/C(=C\c1cccc(Cl)c1Cl)S2` get with UO-31?
Reply: 12.7 µM (inactive)
